experiment: qHTS assay for identifying genotoxic compounds that show differential cytotoxicity against isogenic chicken DT40 cell lines with known DNA damage response pathways - Rad54/Ku70 mutant cell line (AID 743015); conditions: DT40 Rad54/Ku70 mutant viability, CellTiter-Glo, 40 h; series mostly up to 66.8 µM; further: nearly all actives have a fitted effect of over 60% in size
Inconclusive results are not listed. The source made the active and inactive calls. The call rests on the fitted dose curve; in most records, active means well fitted cell-killing curve with a large enough effect in the repeat runs; inconclusive means weak or mixed curves; inactive means no such curve, though single readings can be large or run the other way.
Classes used: yes (1) for active, no (0) for inactive

{"Molecule": "O=C(/C=C/c1ccc(O)c(O)c1)O[C@@H]1C[C@@](OC(=O)/C=C/c2ccc(O)c(O)c2)(C(=O)O)C[C@@H](O)[C@@H]1O", "Assigned Class": "no (0)"}
{"Molecule": "Cc1c(C)c2c(c(C)c1OC(=O)CCC(=O)OCCO)CC[C@@](C)(CCC[C@H](C)CCC[C@H](C)CCCC(C)C)O2", "Assigned Class": "yes (1)"}
{"Molecule": "O=C(O)CCCCCCCCCCCBr", "Assigned Class": "no (0)"}
{"Molecule": "CC1CC(C)C(=O)C1=O (stereo unspecified)", "Assigned Class": "no (0)"}
{"Molecule": "COc1ccccc1Oc1c(NS(=O)(=O)c2ccc(C(C)(C)C)cc2)nc(-c2ncccn2)nc1OCCO", "Assigned Class": "no (0)"}
{"Molecule": "C=C(C)CCCC(C)CCO (stereo unspecified)", "Assigned Class": "yes (1)"}
{"Molecule": "C[C@@H](CN(C)C)CN1c2ccccc2Sc2ccccc21", "Assigned Class": "yes (1)"}
{"Molecule": "O=c1[nH]ncc2ccccc12", "Assigned Class": "no (0)"}
{"Molecule": "CCCCCCCC/C=C\\CCCCCCCCCCCC(=O)O", "Assigned Class": "no (0)"}
{"Molecule": "CN1C(=O)N(c2ccccc2Br)Cc2cnc(Nc3ccc4c(c3)OCC(CO)O4)nc21 (stereo unspecified)", "Assigned Class": "yes (1)"}
{"Molecule": "C(=C\\c1ccccc1)/c1ccccc1", "Assigned Class": "no (0)"}
{"Molecule": "C[C@]12CC[C@@H]3c4ccc(O)cc4CC[C@H]3[C@@H]1CC[C@@H]2OC(=O)CCC1CCCC1", "Assigned Class": "yes (1)"}
{"Molecule": "O=Cc1c2ccccc2c(Cl)c2ccccc12", "Assigned Class": "no (0)"}
{"Molecule": "O=[N+]([O-])c1ccc(O/N=C/c2cc(Br)c(O)c(Br)c2)c([N+](=O)[O-])c1", "Assigned Class": "no (0)"}
{"Molecule": "C[C@@H]1CN(CCCn2c3ccccc3c3ccccc32)C[C@H](C)N1", "Assigned Class": "yes (1)"}
{"Molecule": "COc1cc(Nc2c(C#N)cnc3cc(OCCCN4CCN(C)CC4)c(OC)cc23)c(Cl)cc1Cl", "Assigned Class": "yes (1)"}
{"Molecule": "C=CC(=O)OCC1CC2CC1C1CCC(COC(=O)C=C)C21 (stereo unspecified)", "Assigned Class": "yes (1)"}
{"Molecule": "c1ccc(C[n+]2cccc3ccccc32)cc1", "Assigned Class": "yes (1)"}
{"Molecule": "CCC(C)COC(C)=O (stereo unspecified)", "Assigned Class": "no (0)"}
{"Molecule": "CCCCCCCCOc1ccc(C(=O)O)cc1", "Assigned Class": "no (0)"}
{"Molecule": "O=[N+]([O-])c1cc(C2CCCCC2)c(O)c([N+](=O)[O-])c1", "Assigned Class": "yes (1)"}
{"Molecule": "Cc1cc(O)ccc1O", "Assigned Class": "no (0)"}
{"Molecule": "CCCCCCCCCCC(=O)O", "Assigned Class": "no (0)"}
{"Molecule": "CC(C)=CC(=O)C=C(C)C", "Assigned Class": "no (0)"}
{"Molecule": "CC1CC(OC(=O)C(O)c2ccccc2)CC(C)(C)N1C (stereo unspecified)", "Assigned Class": "no (0)"}
{"Molecule": "CCOC(=O)c1ccc(OCCN2C[C@H](O)[C@@H](O)[C@H](O)[C@H]2CO)cc1", "Assigned Class": "no (0)"}
{"Molecule": "N#[N+]c1ccc2c(S(=O)(=O)[O-])cccc2c1O", "Assigned Class": "no (0)"}
{"Molecule": "O=C(O)CCC(=O)C(=O)O", "Assigned Class": "no (0)"}
{"Molecule": "CN1C(=O)c2ccccc2C1=O", "Assigned Class": "yes (1)"}
{"Molecule": "CC(C)C(O)(c1ccc(OC(F)(F)F)cc1)c1cncnc1 (stereo unspecified)", "Assigned Class": "yes (1)"}
{"Molecule": "COc1ccccc1N1CCN(CCCCNC(=O)c2ccc(-c3ccc(C(C)=O)cc3)cc2)CC1", "Assigned Class": "no (0)"}
{"Molecule": "CCc1ccccc1", "Assigned Class": "no (0)"}
{"Molecule": "CCC(=O)C1CC(C(C)C)CC=C1C (stereo unspecified)", "Assigned Class": "no (0)"}
{"Molecule": "CC(=O)c1ccc([N+](=O)[O-])cc1", "Assigned Class": "no (0)"}
{"Molecule": "CN1C(C(=O)Nc2ccccn2)=C(O)c2sccc2S1(=O)=O", "Assigned Class": "no (0)"}
{"Molecule": "COc1ccccc1NC(=O)c1cc2ccccc2cc1O", "Assigned Class": "yes (1)"}
{"Molecule": "CO/N=C(/C(=O)N[C@@H]1C(=O)N2C(C(=O)O)=C(COC(N)=O)CS[C@H]12)c1ccco1", "Assigned Class": "no (0)"}
{"Molecule": "Cc1cscn1", "Assigned Class": "no (0)"}
{"Molecule": "Cc1cc(C)cc(N)c1", "Assigned Class": "no (0)"}
{"Molecule": "O=C=Nc1ccc(Cl)c(Cl)c1", "Assigned Class": "no (0)"}
{"Molecule": "O=C(O)c1cccc(-c2noc(-c3ccccc3F)n2)c1", "Assigned Class": "no (0)"}
